# MEASURED TARGET: human ether-à-go-go-related gene (hERG) potassium channel (human, UniProt Q12809)
# Sequence (Q12809 whole entry, looked up): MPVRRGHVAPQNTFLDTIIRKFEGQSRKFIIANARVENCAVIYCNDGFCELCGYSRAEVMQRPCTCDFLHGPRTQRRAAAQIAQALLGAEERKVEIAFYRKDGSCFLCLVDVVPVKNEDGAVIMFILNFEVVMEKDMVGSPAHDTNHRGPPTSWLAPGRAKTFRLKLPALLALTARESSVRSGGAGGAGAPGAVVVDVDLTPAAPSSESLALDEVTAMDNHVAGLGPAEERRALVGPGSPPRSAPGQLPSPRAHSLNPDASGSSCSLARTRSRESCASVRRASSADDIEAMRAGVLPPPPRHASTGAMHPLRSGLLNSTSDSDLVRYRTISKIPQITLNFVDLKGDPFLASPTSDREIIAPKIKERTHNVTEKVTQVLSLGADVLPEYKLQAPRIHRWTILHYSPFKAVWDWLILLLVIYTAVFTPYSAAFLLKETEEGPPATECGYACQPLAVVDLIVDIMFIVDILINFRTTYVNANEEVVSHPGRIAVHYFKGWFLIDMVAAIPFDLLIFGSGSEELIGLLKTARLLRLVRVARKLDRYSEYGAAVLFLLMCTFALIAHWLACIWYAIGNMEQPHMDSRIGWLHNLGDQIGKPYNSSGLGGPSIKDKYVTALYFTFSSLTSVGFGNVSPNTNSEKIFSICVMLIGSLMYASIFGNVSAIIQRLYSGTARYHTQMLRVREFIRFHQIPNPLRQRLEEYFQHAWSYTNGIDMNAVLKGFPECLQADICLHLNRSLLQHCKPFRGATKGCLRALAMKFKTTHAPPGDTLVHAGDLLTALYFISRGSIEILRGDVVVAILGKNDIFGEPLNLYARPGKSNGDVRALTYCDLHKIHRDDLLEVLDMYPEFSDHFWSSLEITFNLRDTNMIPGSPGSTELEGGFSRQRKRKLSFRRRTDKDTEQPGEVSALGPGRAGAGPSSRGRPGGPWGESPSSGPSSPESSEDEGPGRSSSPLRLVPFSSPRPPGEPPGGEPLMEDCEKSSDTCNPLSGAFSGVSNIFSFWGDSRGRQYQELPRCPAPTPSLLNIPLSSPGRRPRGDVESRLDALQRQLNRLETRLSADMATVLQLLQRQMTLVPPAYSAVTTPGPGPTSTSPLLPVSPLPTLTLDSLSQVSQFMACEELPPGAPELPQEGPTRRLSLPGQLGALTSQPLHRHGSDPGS
# ASSAY SUMMARY: primary screen, population patch clamp on CHO cells stably expressing hERG; higher = less effect of the substance
Out of some 310,000 compounds screened, about 2,200 (0.71%) showed an effect of 50% or more. Effects have a minus sign here. This is one part of a sample in which strong results are shown more often than they occur.
RECORDED METRIC: hERG current change (%, negative = inhibition) at 1uM

{"MOLECULE": "CCCCCCCNC(=O)C1(CC2CC(c3ccc(Cl)cc3)=NO2)CCN(C(=O)OC(C)(C)C)CC1 (stereo not drawn)", "OBSERVED RESULT": "18.9%"}
{"MOLECULE": "CCCNC(=O)C1(CC2CC(c3ccccc3)=NO2)CCN(C(=O)CCCCCBr)CC1 (stereo not drawn)", "OBSERVED RESULT": "-5.35%"}
{"MOLECULE": "CCCCCCCNC(=O)C1(CC2CC(c3ccc(Cl)cc3)=NO2)CCN(C(=O)CCCCCBr)CC1 (stereo not drawn)", "OBSERVED RESULT": "-52.1%"}
{"MOLECULE": "c1ccc(Cn2c(CNc3nc4ccccc4n3CCN3CCOCC3)nc3ccccc32)cc1", "OBSERVED RESULT": "-54.4%"}
{"MOLECULE": "CCCCCCCNC(=O)C1(CC2CC(c3cccc(Br)c3)=NO2)CCN(C(=O)OC(C)(C)C)CC1 (stereo not drawn)", "OBSERVED RESULT": "4.2%"}
{"MOLECULE": "O=C(Nc1ccc(Nc2ccccc2)cc1)C(Cl)(Cl)Cl", "OBSERVED RESULT": "7.95%"}
{"MOLECULE": "O=C(CCCCCBr)N1CCC(CC2CC(c3ccc(Cl)cc3)=NO2)(C(=O)NCC2CCCCC2)CC1 (stereo not drawn)", "OBSERVED RESULT": "-37.5%"}
{"MOLECULE": "Cc1nc2cc(NCc3nc4ccccc4n3Cc3ccccc3)ccc2n1C", "OBSERVED RESULT": "-61.7%"}
{"MOLECULE": "Cc1ccc(SCC(=O)Nc2ccc(C(=O)Nc3ccc(O)cc3)cc2)cc1", "OBSERVED RESULT": "12.6%"}
